System: T cells
Assay: Toxicity towards the T cells in the expansion assay
Type: cell-based, human
Details: Homo sapiens, T-cell
measure: IC50

Recorded IC50, per entry:
molecule | system under test | IC50
CC(C)=CCCP(=O)(CP(=O)(OCOC(=O)C(C)(C)C)OCOC(=O)C(C)(C)C)OCOC(=O)C(C)(C)C (stereo not drawn) | T cells | > 100 µM
CC(C)=CCCP(=O)([O-])CP(=O)([O-])[O-].[Na+].[Na+].[Na+] | T cells | > 100 µM

Could you now consider this next molecule?
Q: Please give the measured IC50 for this molecule: "C/C(=C\CCP(=O)([O-])CP(=O)([O-])[O-])CO.[Na+].[Na+].[Na+]"
A: > 100 µM
